test: qHTS Assay for Spectroscopic Profiling in A350 Spectral Region; details: Compound autofluorescence, 340/450 nm, Alexa 350 dye-equivalents
In all, about 59,000 compounds went through this assay and about 6,500 (11%) were called active. About 15% were inconclusive and are not listed. Cut-off read from the data, not from the text of the source: active = max dye-equivalent concentration above about 10 nM; inconclusive = mostly about 1.1 nM to 9.6 nM; inactive = weaker than that. The entries come from a sample that favours actives as a whole.
Answer with one of the outcomes active, inactive

Here's what some known entries look like.
[
  {
    "compound": "COc1ccc(C(=O)N2CCC3(CC2)CCN(c2ccccn2)CC3)cc1",
    "group-label": "inactive"
  },
  {
    "compound": "COc1cc(-c2nnc(Cn3cc(C(F)(F)F)ccc3=O)o2)cc(OC)c1OC",
    "group-label": "inactive"
  },
  {
    "compound": "Cc1cc(Cl)ccc1OCC(=O)Oc1c(Cl)c(Cl)c(Cl)c(Cl)c1Cl",
    "group-label": "inactive"
  }
]

Qu. Please indicate how the test categorized `Clc1ccccc1-c1cc(NCCN2CCOCC2)ncn1` .
Ans. inactive

Qu. Please indicate how the test categorized CS(=O)(=O)N(C(=O)NC(=O)NC1CCS(=O)(=O)C1)C1CCCCC1 (stereo not drawn) .
Ans. inactive

Qu. Please indicate how the test categorized `Cc1noc(C)c1-c1nccc(N2CCOCC2)n1` .
Ans. inactive

Qu. Please indicate how the test categorized `CC(=O)NC1=NC(=O)CS1` .
Ans. inactive

Qu. Please indicate how the test categorized `Clc1cccc(Cl)c1Cn1nnc(-c2cccs2)n1` .
Ans. inactive

Qu. Please indicate how the test categorized `Cc1cc(=O)oc(C)c1C(=O)Nc1cnc2ccccc2c1` .
Ans. active

Qu. Please indicate how the test categorized `Cc1cc(C)c2c(n1)nn1c(N3CCN(c4cccc(Cl)c4)CC3)cc(C)nc21` .
Ans. active

Qu. Please indicate how the test categorized `CC(=O)OCc1cc(=O)n(C)c(=O)n1C` .
Ans. inactive

* * *

test: qHTS Assay for Spectroscopic Profiling in A350 Spectral Region; conditions: Compound autofluorescence, 340/450 nm, Alexa 350 dye-equivalents
Hit rate of the full screen: of about 59,000 compounds, about 6,500 (11%) were called active. Inconclusive results (about 15%) are left out. Rule as the data show it: active = max dye-equivalent concentration above about 10 nM; inconclusive = mostly about 1.1 nM to 9.6 nM; inactive = weaker than that. The sample as a whole holds a higher share of actives than the screen did.
Answer with one of the outcomes class 1 for active, class 0 for inactive

[
  {
    "molecule": "Cc1nc(-c2ccc(NC(=O)c3cccs3)cc2)cs1",
    "group-label": "class 1"
  }
]

Qu. Please indicate how the test categorized `Cc1ccc(C)c(S(=O)(=O)N2CC(=O)Nc3ccccc32)c1` .
Ans. class 0

Qu. Please indicate how the test categorized `CC(C)(C)NCC[C@@H](O)c1cc(C(F)(F)F)nc2c(C(F)(F)F)cccc12` .
Ans. class 0

Qu. Please indicate how the test categorized `CCNc1nc(NCC)nc(N(C)n2cnnc2)n1` .
Ans. class 0

* * *

assay: qHTS Assay for Spectroscopic Profiling in A350 Spectral Region; conditions: Compound autofluorescence, 340/450 nm, Alexa 350 dye-equivalents
About 6,500 (11%) of roughly 59,000 compounds were called active. Roughly 15% stayed inconclusive and do not appear here. Cut-off read from the data, not from the text of the source: active = max dye-equivalent concentration above about 10 nM; inconclusive = mostly about 1.1 nM to 9.6 nM; inactive = weaker than that. The list comes from a sample in which actives are over-represented; it also holds close analogues and randomly drawn compounds.
Answer with one of the outcomes Yes (active), No (inactive)

Here's what some known entries look like.
[
  {
    "compound": "Cc1ccc(SCCN2C(=O)NC(C)(C)C2=O)cc1",
    "group-label": "No"
  },
  {
    "compound": "COc1ccc(-c2csc(N3CCN(Cc4ccc5c(c4)OCO5)CC3)n2)cc1",
    "group-label": "No"
  },
  {
    "compound": "CC(=O)N1CCN(CCN=CC2=C(O)CC(C)(C)CC2=O)CC1",
    "group-label": "No"
  },
  {
    "compound": "O=C(Nc1cccc2c1CCCC2)C1CCN(C(=O)NC2CCCCC2)CC1",
    "group-label": "No"
  },
  {
    "compound": "Cc1cccc(C)c1NC(=O)CCCSc1nnc(-c2ccco2)n1-c1ccccc1",
    "group-label": "No"
  }
]

Qu. Please indicate how the test categorized `COc1ccccc1Nc1ncnc2c1oc1ccccc12` .
Ans. Yes

Qu. Please indicate how the test categorized `Cc1cc(C)c2nc3c(c([C@H](O)[C@@H]4CCCCN4)c2c1)CC/C3=C/c1ccc(Cl)cc1` .
Ans. No

Qu. Please indicate how the test categorized `COc1ccc(C(=O)Nc2ccc(S(=O)(=O)Nc3onc(C)c3C)cc2)cc1OC` .
Ans. No

Qu. Please indicate how the test categorized `O=C(Nc1ccc(Oc2ccccc2)cc1)c1ccco1` .
Ans. No

Qu. Please indicate how the test categorized `CC(=O)N1CCC2(CCCN(Cc3ccccc3)C2)CC1` .
Ans. No

Qu. Please indicate how the test categorized CC(C)OC(=O)C(C#N)c1nc2ccccc2nc1N1CCN(Cc2ccccc2)CC1 (stereo unspecified) .
Ans. No
